Where do the numbers come from? From patent US9695155B2.

# System: corn
# method: Test C postemergence
# Assay type: in vivo, Zea mays
# statedConditions: Postemergence, 62 g ai/ha; scale 0 to 100 (0 no effect, 100 complete control); 13 to 15 days
metric: Plant response rating, Corn
One number for each entry.

- molecule: "N#Cc1cnn(-c2c(C#N)cccc2Oc2ncc(Cl)cn2)c1"
  Plant response rating, Corn: 10
- molecule: "FC(F)Oc1cnn(-c2c(Cl)cccc2Oc2ncc(Cl)cn2)c1"
  Plant response rating, Corn: 10
- molecule: "Clc1cnc(Oc2cccc(Cl)c2-n2cc(Cl)cn2)nc1"
  Plant response rating, Corn: 10

From here, focus on the item given below.
Give reported Plant response rating, Corn value for Clc1cnc(Oc2ccccc2-n2cc(Br)nn2)nc1 5

----------
# Test system: Italian ryegrass
# method: Test C postemergence
# Type: in vivo, Lolium multiflorum
# statedConditions: Postemergence, 62 g ai/ha; scale 0 to 100 (0 no effect, 100 complete control)
# Excerpt: […]
metric: Plant response rating, Ryegrass, Italian
Answers are plain numbers.

Use these answered entries as a reference point.
- molecule: "Cc1cnc(Oc2cccc(C#N)c2-n2cc(C#N)cn2)nc1"
  measuredOn: "Italian ryegrass"
  measurement: 5
- molecule: "N#Cc1cccc(Oc2ncc(Cl)cn2)c1-n1cc(OC(F)F)cn1"
  measuredOn: "Italian ryegrass"
  measurement: 5
- molecule: "Cc1cnc(Oc2cccc(C#N)c2-n2cc(C(F)(F)F)cn2)nc1"
  measuredOn: "Italian ryegrass"
  measurement: 5
- molecule: "Clc1cnc(Oc2cccc(Br)c2-n2cc(I)nn2)nc1"
  measuredOn: "Italian ryegrass"
  measurement: 0
- molecule: "Fc1cnc(Oc2cccc(C(F)F)c2-n2cc(Cl)cn2)nc1"
  measuredOn: "Italian ryegrass"
  measurement: 0

Give reported Plant response rating, Ryegrass, Italian value for N#Cc1cnn(-c2c(Br)cccc2Oc2ncc(Cl)cn2)c1 0

----------
# System: morningglory
# method: Test A postemergence
# Format: in vivo, Ipomoea spp.
# statedConditions: 125 g ai/ha, 0 to 100 scale, 0 no effect, 100 complete control
# Excerpt: […]
Please provide measured Plant response rating, Morningglory for the entries that follow.
One number for each entry.

- molecule: "CCOC(=O)c1cnn(-c2c(C#N)cccc2Oc2ncc(Br)cn2)c1 [Compound 294]"
  Plant response rating, Morningglory: 20
- molecule: "NN=Cc1cccc(Oc2ncc(Cl)cn2)c1-n1cc(Cl)cn1 [Compound 295]"
  Plant response rating, Morningglory: 40
- molecule: "NC(=S)c1cccc(Oc2ncc(Cl)cn2)c1-n1cc(Cl)cn1 [Compound 292]"
  Plant response rating, Morningglory: 90

From here, focus on the item given below.
Give reported Plant response rating, Morningglory value for Clc1cnc(Oc2cccc(-c3ncco3)c2-n2cc(Br)cn2)nc1 [Compound 287] 10

----------
# System: morningglory
# method: Test A postemergence
# Format: in vivo, Ipomoea spp.
# statedConditions: 500 g ai/ha, 0 to 100 scale where 0 is no effect and 100 is complete control
metric: Plant response rating, Morningglory
One number for each entry.

- molecule: "Clc1cnc(Oc2cccc(Br)c2-n2cc(Cl)cn2)nc1"
  measuredOn: "morningglory"
  Plant response rating, Morningglory: 100
- molecule: "N#Cc1cnc(Oc2ccccc2-n2cccn2)nc1"
  measuredOn: "morningglory"
  Plant response rating, Morningglory: 0
- molecule: "O=Cc1cccc(Oc2ncc(Cl)cn2)c1-n1cc(I)cn1"
  measuredOn: "morningglory"
  Plant response rating, Morningglory: 0
- molecule: "Cc1cnn(-c2c(C#N)cccc2Oc2ncc(Cl)cn2)c1"
  measuredOn: "morningglory"
  Plant response rating, Morningglory: 90
- molecule: "CCOC(=O)c1cnn(-c2c(C#N)cccc2Oc2ncc(Br)cn2)c1"
  measuredOn: "morningglory"
  Plant response rating, Morningglory: 30
- molecule: "FC(F)c1cnn(-c2c(Cl)cccc2Oc2ncc(Cl)cn2)c1"
  measuredOn: "morningglory"
  Plant response rating, Morningglory: 100

For every item in the list below, what is its measured Plant response rating, Morningglory?
1. Fc1cccc(Oc2ncc(Cl)cn2)c1-n1cc(Cl)cn1
2. N#Cc1cccc(Oc2ncc(Br)cn2)c1-n1cc(Cl)cn1
3. FC(F)(F)c1cnn(-c2c(Br)cccc2Oc2ncc(Cl)cn2)c1

[100, 90, 100]
